Test system: SH-SY5Y cells
ASSAY SUMMARY: AK (adenylate kinase) release ToxiLight cytotoxicity assay
MEASUREMENT CONTEXT: PKIS2 primary screening
Below, each entry is listed alongside its reported AK.
Give a plain numeric answer without units written out.

Some solved cases for reference:
[ask] Recorded AK of COC(=O)c1cccc(NC(=O)NC2CCN(c3ccnc(Nc4ccc(OC)cc4)n3)C2)c1 (stereo not shown) , please.
[reply] 99.00

[ask] Lookup N#Cc1cccc(C(=O)NC2CCN(c3ccnc(Nc4ccc(F)cc4)n3)C2)c1 (stereo not shown)
[reply] 99.36

[ask] Please give the result for CCCc1ccc(S(=O)(=O)NC2CCN(c3ccnc(Nc4ccc(F)cc4)n3)C2)cc1 (stereo not shown) too.
[reply] 100.57

Continue with the next molecule.
[ask] I have this molecule here, Cl.Cl.c1ccc(-c2cc3ccncc3cc2OC2CCNCC2)cc1 [UNC10225463A] , and I need its recorded AK.
[reply] 97.09

###

Test system: SH-SY5Y cells
MEASUREMENT CONTEXT: PKIS2 primary screening, DQ Red BSA spot count
Measured DQ Spot of individual entries
Just the number.

[ask] Observed DQ Spot on SH-SY5Y cells for C=CC(=O)Nc1cc2c(Nc3ccc(F)c(Cl)c3)ncnc2cc1OCCCN1CCOCC1 [UNC10126563B] , please.
[reply] 74.22

[ask] Same question for COc1ccc(CNC(=O)NC2CCN(c3ccnc(Nc4cc(OC)c(OC)c(OC)c4)n3)C2)cc1 (stereo not shown) [GSK1379748] please.
[reply] 91.07

[ask] Check COc1cc(Nc2nccc(N3CCC(NC(=O)c4cccc(C#N)c4)C3)n2)cc(OC)c1OC (stereo not shown) [GSK1379751] too.
[reply] 103.20

Let us examine a further case.
[ask] Give the reported DQ Spot for c1ccc(Oc2ccc(Nc3ccnc4cc(-c5ccc(CN6CCCCC6)o5)ccc34)cc2)nc1 [UNC10225094A] (system: SH-SY5Y cells).
[reply] 45.68

###

Test system: endogenous TFE3
ASSAY SUMMARY: TFE3 nuclear translocation, immunocytochemistry high-content imaging
Format: cell-based
MEASUREMENT CONTEXT: PKIS2 primary screening
PROPERTY LABEL: TFE3 % (%)
The answer is to be given in %; state only the numeric part.

[ask] Report TFE3 % for Cc1ccc(-c2cc(-c3c[nH]nc3-c3ccccn3)ccn2)cc1 [UNC10225125A] please.
[reply] 5.68

[ask] Then what about the compound CN(C)CCN(C)C(=O)c1cc(-c2ccncc2)c(-c2ccc(Cl)c(O)c2)o1.Cl.Cl [UNC10225256A] ?
[reply] 22.07

[ask] Next record, please: Cl.c1ccc(Cn2ccc3cc(Nc4ncnc5ccccc45)ccc32)cc1 [UNC10225488A]
[reply] 8.10

[ask] And what about the compound CN(c1ccc(NC(=O)N2CCN(CCCN3CCOCC3)CC2)cc1)c1ccnc(Nc2ccc(CS(C)(=O)=O)cc2)n1 ?
[reply] 11.27

[ask] Please give the result for Cl.c1ccc(Cn2cnc3cc(Nc4ncnc5ccccc45)ccc32)cc1 [UNC10225378A] too.
[reply] 16.85

[ask] Could you do the same for Cc1ccc(NC(=O)Nc2ccccc2)cc1-c1ccc(C(=O)Nc2ccncc2)cc1 [UNC10224992A] , please?
[reply] 19.70

[ask] Please do the same for CC(C)(C)c1ccc2nccc(Nc3cccc(O)c3)c2c1 [UNC10225361A] as well.
[reply] 26.88

Origin of measurements: paper PMC9851200
